# MEASUREMENT_NOTES: growth modulation of vineyard yeast isolate – strain RM11-1a, OD600, basal, 24 h, primary screen (AID 1177);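 note: cultures grown under basal conditions with no added stressor; test concentration not given here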
# CONDITION_INFO: S. cerevisiae RM11-1a growth, OD600, 24 h; higher = more signal, called active from +8 up or from −8 down
PROPERTY_MEASURED: z-score
I'd appreciate a reply containing only the number, no unit.

Inquiry: Find the recorded z-score belonging to COCCOC(=O)N1C(=O)[C@@]2(c3cc(C#CCCO)ccc31)[C@H](c1ccc(OCCO)cc1)N1[C@H](c3ccccc3)[C@H](c3ccccc3)OC(=O)[C@H]1[C@@H]2C(=O)N1CCCCCCC1 and report it.
Reply text: 1.13

Inquiry: Repeat with C=C(CCCC)/C(=C/C[C@H](OC(=O)c1ccncc1)c1cccc(OCCO)c1)c1cnc2ccccc2c1
Reply text: -0.364

Inquiry: Here is the next molecule: C=CCC(OC(C)=O)[C@@H]1[C@@H](N(Cc2cccc3ccccc23)C(=O)Cc2ccc(OC)cc2)c2cc(OCCCO)ccc2N1C(=O)Cc1ccc2ccccc2c1 (some centres undefined)
Reply text: -0.372

Consider the record given below.
Inquiry: Looking for the measured z-score of [N-]=[N+]=NCc1ccccc1[C@@H]1OC(c2ccc(OCCCO)cc2)=N[C@]1(Cc1ccccc1N=[N+]=[N-])C(=O)O , can you help?
Reply text: 0.783
